target: Bovine cardiac myosin (Bos taurus (Bovine), UniProt Q9BE39); test: Cardiac muscle myosin II actin-activated ATPase assay (NADH-coupled); type: biochemical; details: cardiac myosin II Ki over nonmuscle myosin II EC50
Sequence (Q9BE39 whole entry): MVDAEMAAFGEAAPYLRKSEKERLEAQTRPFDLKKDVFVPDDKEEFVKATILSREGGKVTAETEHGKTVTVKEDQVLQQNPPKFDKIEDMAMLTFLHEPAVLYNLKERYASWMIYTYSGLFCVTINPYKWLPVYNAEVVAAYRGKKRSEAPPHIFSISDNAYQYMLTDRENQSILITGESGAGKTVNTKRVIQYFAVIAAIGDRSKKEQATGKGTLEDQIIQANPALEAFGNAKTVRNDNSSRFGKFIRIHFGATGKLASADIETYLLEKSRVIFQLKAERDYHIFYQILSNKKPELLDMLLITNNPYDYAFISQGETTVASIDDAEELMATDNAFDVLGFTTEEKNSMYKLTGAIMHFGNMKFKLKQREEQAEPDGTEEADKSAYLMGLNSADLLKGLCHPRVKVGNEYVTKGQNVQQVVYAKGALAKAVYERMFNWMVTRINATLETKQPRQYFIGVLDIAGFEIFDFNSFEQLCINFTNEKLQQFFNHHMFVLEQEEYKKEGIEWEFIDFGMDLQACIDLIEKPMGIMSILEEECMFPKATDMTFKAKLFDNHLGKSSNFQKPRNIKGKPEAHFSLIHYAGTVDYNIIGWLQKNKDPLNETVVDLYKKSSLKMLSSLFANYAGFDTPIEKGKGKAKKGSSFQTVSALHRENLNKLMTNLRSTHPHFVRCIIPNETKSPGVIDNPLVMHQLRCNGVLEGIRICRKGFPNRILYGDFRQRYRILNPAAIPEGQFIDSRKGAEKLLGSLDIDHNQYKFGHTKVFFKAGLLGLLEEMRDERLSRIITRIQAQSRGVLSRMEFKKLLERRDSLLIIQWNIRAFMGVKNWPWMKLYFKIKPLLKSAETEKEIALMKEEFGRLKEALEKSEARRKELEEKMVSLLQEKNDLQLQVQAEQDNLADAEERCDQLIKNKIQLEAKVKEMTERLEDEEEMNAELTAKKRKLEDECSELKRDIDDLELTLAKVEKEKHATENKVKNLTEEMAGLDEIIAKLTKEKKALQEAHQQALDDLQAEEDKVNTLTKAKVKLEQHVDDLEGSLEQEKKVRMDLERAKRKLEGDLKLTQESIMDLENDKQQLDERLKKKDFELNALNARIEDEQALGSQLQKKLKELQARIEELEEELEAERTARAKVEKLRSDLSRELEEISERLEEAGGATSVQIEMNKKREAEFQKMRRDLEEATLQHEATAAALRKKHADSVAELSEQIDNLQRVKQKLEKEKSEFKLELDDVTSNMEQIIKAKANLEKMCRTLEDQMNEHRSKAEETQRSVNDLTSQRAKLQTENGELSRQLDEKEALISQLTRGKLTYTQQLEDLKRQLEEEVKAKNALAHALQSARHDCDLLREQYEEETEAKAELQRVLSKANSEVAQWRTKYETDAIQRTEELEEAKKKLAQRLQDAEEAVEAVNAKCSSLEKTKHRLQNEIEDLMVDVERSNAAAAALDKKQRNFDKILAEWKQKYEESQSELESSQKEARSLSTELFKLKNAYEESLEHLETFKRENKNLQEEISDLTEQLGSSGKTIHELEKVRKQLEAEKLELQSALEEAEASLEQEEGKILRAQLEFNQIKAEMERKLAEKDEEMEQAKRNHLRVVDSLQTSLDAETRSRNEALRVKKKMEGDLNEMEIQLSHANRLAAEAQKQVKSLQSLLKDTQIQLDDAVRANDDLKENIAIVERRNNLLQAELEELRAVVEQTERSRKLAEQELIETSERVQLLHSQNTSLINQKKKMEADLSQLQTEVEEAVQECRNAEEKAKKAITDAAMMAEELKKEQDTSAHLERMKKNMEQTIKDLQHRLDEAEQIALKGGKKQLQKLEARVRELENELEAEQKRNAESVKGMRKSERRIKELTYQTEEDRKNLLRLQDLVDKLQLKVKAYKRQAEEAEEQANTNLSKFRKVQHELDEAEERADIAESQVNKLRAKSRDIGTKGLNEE
Sequence (P85100 whole entry partner): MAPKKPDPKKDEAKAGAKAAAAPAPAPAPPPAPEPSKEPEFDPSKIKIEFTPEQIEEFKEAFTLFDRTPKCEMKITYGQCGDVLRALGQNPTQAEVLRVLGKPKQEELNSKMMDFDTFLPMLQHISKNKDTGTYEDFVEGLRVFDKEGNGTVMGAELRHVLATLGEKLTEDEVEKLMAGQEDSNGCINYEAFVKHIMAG
Sequence (Q3SZE5 whole entry partner): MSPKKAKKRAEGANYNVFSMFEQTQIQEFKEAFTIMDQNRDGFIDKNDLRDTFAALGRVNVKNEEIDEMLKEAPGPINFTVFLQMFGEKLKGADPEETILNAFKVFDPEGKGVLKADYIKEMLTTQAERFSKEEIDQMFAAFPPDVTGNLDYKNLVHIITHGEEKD
PROPERTY_LABEL: Ratio CMMII:NMII Ki/EC50
Respond using a number only.

State the recorded Ratio CMMII:NMII Ki/EC50 for this entry: "Cc1cc2c(cc1C)C(=O)[C@]1(O)CCN(c3ccc(C#N)cc3)C1=N2"
12.4

For the compound shown here, "Cc1cc2c(cc1C)C(=O)[C@]1(O)CCN(c3cnc(CO)c(C)c3)C1=N2" , give the reported Ratio CMMII:NMII Ki/EC50.
3.1

Which Ratio CMMII:NMII Ki/EC50 value belongs to "Cc1cc(N2CC[C@@]3(O)C(=O)c4cc(C)c(C)cc4N=C23)ccn1" ?
13.3

May I ask what Ratio CMMII:NMII Ki/EC50 has been recorded for "Cc1cc2c(cc1Cl)C(=O)[C@]1(O)CCN(c3ccccc3)C1=N2" ?
3.5

Param item = "COc1cc(N2CC[C@@]3(O)C(=O)c4cc(Cl)ccc4N=C23)ccn1" ; retrieve measured Ratio CMMII:NMII Ki/EC50.
7.0

Data request, read-out Ratio CMMII:NMII Ki/EC50, for "Cc1cc2c(cc1C)C(=O)[C@]1(O)CCN(c3ccc4c(c3)NCCC4)C1=N2"
7.3

Please look up its Ratio CMMII:NMII Ki/EC50: "Cc1ccc2c(c1)C(=O)[C@]1(O)CCN(c3ccc4ccoc4c3)C1=N2"
5.7

I am curious: what Ratio CMMII:NMII Ki/EC50 value has been reported for "Cc1cc2c(cc1C)C(=O)[C@]1(O)CCN(c3cnc4c(c3)OCCN4)C1=N2" ?
12.5

I have this compound here, "COc1cc(N2CC[C@@]3(O)C(=O)c4cc(C)c(C)cc4N=C23)ccn1" , and I need its recorded Ratio CMMII:NMII Ki/EC50.
25.5

Need Ratio CMMII:NMII Ki/EC50, item "Cc1cc2c(cc1C)C(=O)[C@]1(O)CCN(c3ccc4c(c3)NCCO4)C1=N2"
3.8

Request the reported Ratio CMMII:NMII Ki/EC50 associated with "Cc1cc2c(cc1C)C(=O)[C@]1(O)CCN(c3ccc4scnc4c3)C1=N2"
7.6

What value of Ratio CMMII:NMII Ki/EC50 has been reported for the following compound? "Cc1cc2c(cc1C)C(=O)[C@]1(O)CCN(c3ccc4nc(C)c(C)cc4c3)C1=N2"
31.6

Form field: reported Ratio CMMII:NMII Ki/EC50 of "Cc1cc(C)c2c(c1)N=C1N(c3ccc4ncccc4c3)CC[C@@]1(O)C2=O"
7.5
